Recorded Ki for the following molecules
- TARGET: mushroom tyrosinase (Agaricus bisporus, UniProt C7FF04)
- Construct: purchased Sigma-Aldrich (St. Louis, MO, USA)
- Sequence (C7FF04 1-392): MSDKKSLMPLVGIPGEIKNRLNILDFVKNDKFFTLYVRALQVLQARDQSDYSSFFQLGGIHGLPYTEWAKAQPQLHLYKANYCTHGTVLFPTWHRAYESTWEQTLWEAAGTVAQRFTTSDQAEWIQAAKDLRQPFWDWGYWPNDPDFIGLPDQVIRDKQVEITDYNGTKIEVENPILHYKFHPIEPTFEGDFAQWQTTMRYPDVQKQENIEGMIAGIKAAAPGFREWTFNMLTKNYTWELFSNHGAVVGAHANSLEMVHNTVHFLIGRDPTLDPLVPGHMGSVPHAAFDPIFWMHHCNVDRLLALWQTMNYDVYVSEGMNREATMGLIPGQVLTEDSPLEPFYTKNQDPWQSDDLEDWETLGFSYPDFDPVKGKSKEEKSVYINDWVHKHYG
- PROCEDURE_SUMMARY: Diphenolase activity of mushroom tyrosinase (L-DOPA as substrate), Lineweaver-Burk kinetics
- Format: biochemical
- EXPERIMENTAL_PARAMETERS: free enzyme; plot of slopes vs inhibitor concentration; read-out: Inhibition constant KI
I only need the number, in µM, no unit after it.

SMILES_STRING	PROPERTY_NAME	QUANTITY_UNIT	QUANTITATIVE_RESULT
Nn1c(N/N=C/C=C/c2ccccc2)nnc1SCc1cc(=O)c(O)co1	Ki	µM	4.95

Pending molecule:
Query :: Consider the molecule shown here: COc1ccccc1C=CC=NNc1nnc(SCc2cc(=O)c(O)co2)n1N What is its recorded Ki?
Result :: 6.3

The measurements presented in this section are drawn from paper PMC6522964.
